Provide the recorded GI50 for the entries that follow.
# Tested on: XF498
# experiment-notes: NCI tumour cell line growth inhibition, 48 h
Active and inactive are the calls of the source. Rule as the data show it: active = GI50 up to about 1.1 µM and inactive = higher.

- O=S(=O)(c1ccccc1)C1CN2OC1(S(=O)(=O)c1ccccc1)CC2c1ccc(Br)cc1 (stereo not given): 18.6 µM (inactive)

Hey, can you go through the list below and give me GI50 for every item?
1. COC1/C=C/O[C@@]2(C)Oc3c(C)c(O)c4c(O)c(cc(O)c4c3C2=O)NC(=O)/C(C)=C\C=C\[C@H](C)C(O)[C@@H](C)[C@@H](O)[C@@H](C)[C@H](OC(C)=O)[C@@H]1C (stereo not given in full)
2. O=c1c2ccccc2nc(-c2cccc(Cl)c2)n1NC1OC(CO)C(O)C(O)C1O (stereo not given)

["14.8 µM (inactive)", "> 100 µM (inactive)"]

Hey, can you go through the list below and give me GI50 for every item?
1. CC1CCC2(CC1)NN=c1s/c(=C\c3ccc(O)cc3)c(=O)n1N2 (stereo not given)
2. Cc1ncc(CBr)c(CBr)c1O
3. COc1ccc(C2Oc3ccc(O)cc3[C@@H]2C)cc1OC (stereo not given in full)

1. > 100 µM (inactive)
2. > 100 µM (inactive)
3. > 100 µM (inactive)

---

# Tested on: SN12C
# experiment-notes: NCI tumour cell line growth inhibition, 48 h
The source made the active and inactive calls. Rule as the data show it: active = GI50 up to about 1.1 µM and inactive = higher.
Use one of these outcomes when replying: active, inactive

Before answering, review these 5 worked examples.
* COc1ccc(OC)c(C2CCc3nc4nc(N)nc(N)c4cc3C2)c1 (centres undefined) | inactive
* CCN(CC)C(=S)SNCCc1ccc(S(N)(=O)=O)cc1 | inactive
* O=C(Cc1ccccc1)c1ccc2[nH]c(=O)oc2c1 | inactive
* CC(NNC(=O)c1cc[n+]([BH2-]C#N)cc1)c1cccc(F)c1 (centres undefined) | inactive
* CC(=O)OCC1OC(N2C(C)=C(C(C)=O)C(c3ccc(Cl)cc3)C(C#N)=C2S)C(OC(C)=O)C(OC(C)=O)C1OC(C)=O (centres undefined) | inactive

Record lookup: outcome of this test for `COc1cc(NP(=O)(Oc2ccccc2)Oc2ccccc2)ccc1Nc1c2ccccc2nc2c1[nH]c1ccccc12` ? active

Record lookup: outcome of this test for `C1CN(c2nc3c(nnc4nc(N5CCOCC5)sc43)s2)CCO1` ? inactive

Record lookup: outcome of this test for `O=C1/C(=C/c2ccccc2)CN(C(=O)OCc2ccccc2)C/C1=C\c1ccccc1` ? inactive

Record lookup: outcome of this test for `Nc1nc2[nH]c(=O)cnc2c(=O)[nH]1` ? inactive

Record lookup: outcome of this test for `O=C(N/N=C/c1cc(Cl)cc(Cl)c1O)c1ccncc1` ? inactive

Record lookup: outcome of this test for `CN(O)C(=O)c1ccc(OCc2cccc(Cl)c2)cc1` ? inactive

Record lookup: outcome of this test for `c1csc(-c2ccsc2-c2ccsc2)c1` ? inactive

Record lookup: outcome of this test for `Nc1nc(N)c(-c2ccccc2)c(C(=O)Nc2ccc(Cl)c(Cl)c2)n1` ? inactive

Record lookup: outcome of this test for `COc1ccc2c3c([nH]c2c1)[C@H]1C[C@H]2[C@H](C[C@@H](O)[C@H](OC)[C@H]2C(=O)O)CN1CC3` ? inactive

Record lookup: outcome of this test for `O=C1c2ccccc2-c2nnc(-c3ccc(Cl)cc3)cc21` ? inactive

Record lookup: outcome of this test for `O=[N+]([O-])c1ccc(-c2ccc(-c3csc(Nc4ccccn4)n3)o2)cc1` ? inactive

Record lookup: outcome of this test for `Oc1ccc(N=C2CCC(=C(c3ccccc3)c3ccc(Nc4ccc(O)cc4)cc3)CC2)cc1` ? inactive

Record lookup: outcome of this test for NC1N=Nc2ccccc21 (centres undefined) ? inactive

Record lookup: outcome of this test for `CC1=CC(=O)C(=C(C)C)CC1` ? inactive

Record lookup: outcome of this test for `O=C(O)/C=C/C(=O)N1Cc2cc3ccccc3nc2C1` ? inactive

Record lookup: outcome of this test for `COc1ccc2c(c1)CC[C@@H]1[C@@H]2CC[C@]2(C)/C(=N/OCCN3CCCC3)CC[C@@H]12` ? inactive

Record lookup: outcome of this test for `CC(C)/C=N\n1c(N)c(C#N)c(C#N)c1C(C)C` ? inactive

Record lookup: outcome of this test for Cc1ccc(S(=O)(=O)NC(C(=O)O)C(C)C)cc1 (centres undefined) ? inactive

Record lookup: outcome of this test for COC(=O)N/N=C(/c1nc2ccc([N+](=O)[O-])cc2nc1O)C(O)c1ccc(OC)c(OC)c1 (centres undefined) ? inactive

Record lookup: outcome of this test for Cc1ccc([N+](=O)[O-])cc1S(=O)(=O)Nc1ccc(C2=NOC(c3ccccc3)C2)cc1 (centres undefined) ? inactive

Record lookup: outcome of this test for Cc1nn(C(=O)Cc2ccccc2)c2c1C(c1ccc3ccccc3c1O)SC(=N)N2 (centres undefined) ? inactive
